TARGET ENTITY: biotinylated HCV core peptide 141-161 (Peptide 2) (HCV-1)
PROCEDURE SUMMARY: EIA, captured mAb
What Reactivity (OD492) was measured for each of the following?
Answer with a number only, understood to be in OD.

Reported Reactivity (OD492) for HCV 208A-352 (antibody, V domains shown) VH: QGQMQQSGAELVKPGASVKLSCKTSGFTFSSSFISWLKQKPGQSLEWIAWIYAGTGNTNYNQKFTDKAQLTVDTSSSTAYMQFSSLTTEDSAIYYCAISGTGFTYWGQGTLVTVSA VL: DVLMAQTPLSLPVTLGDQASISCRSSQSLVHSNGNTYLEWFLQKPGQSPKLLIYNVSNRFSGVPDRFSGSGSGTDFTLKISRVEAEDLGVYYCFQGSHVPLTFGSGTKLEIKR was 0.07

Reported Reactivity (OD492) for HCV 208A-983 (antibody, V domains shown) VH: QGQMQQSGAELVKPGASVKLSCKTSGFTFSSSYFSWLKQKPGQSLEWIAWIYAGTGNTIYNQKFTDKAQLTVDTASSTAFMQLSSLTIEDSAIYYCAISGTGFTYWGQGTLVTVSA VL: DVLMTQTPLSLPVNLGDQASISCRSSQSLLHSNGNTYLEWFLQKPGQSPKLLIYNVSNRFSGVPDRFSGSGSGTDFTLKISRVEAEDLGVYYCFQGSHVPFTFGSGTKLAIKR was 0.4
